pIC50: −log10 of the molar value.
For reference, the following pIC50 results for UniProtKB Q14432 were taken from various sources.
measured quantity: pIC50

See these solved cases before continuing.
CC(C)c1ccc(C2=NNC(=O)OC2)cc1C(F)(F)F :: 7.26
C[C@@H]1CC(=O)NN=C1c1cc(F)c(N2CCOCC2)c(Cl)c1 :: 8.62
Cc1ccc(-c2ccc(C3=NNC(=O)CC3)cc2F)cc1F :: 6.60
NCCNc1ccc(C2=NNC(=O)OC2)cc1C(F)(F)F :: 6.52
C[C@@H]1OC(=O)NN=C1c1ccc(-c2ccc(F)cc2)c(C(F)(F)F)c1 :: 7.06

I: Cc1noc(C)c1-c1ccc(C2=NNC(=O)OC2)cc1C(F)(F)F
II: O=C1NN=C(c2ccc(NCC(O)C(F)(F)F)c(C(F)(F)F)c2)CO1 (racemic)
Task: Which value of pIC50 is smaller, the one for I or the one for II ? Write down the label attached to your selection.
Output: I
(I: 6.01, II: 7.10)

A: C[C@@H]1OC(=O)NN=C1c1ccc(-c2cnn(C(F)F)c2)c(C(F)(F)F)c1
B: C=C(C)c1ccc(C2=NNC(=O)OC2)cc1C(F)(F)F
C: Cc1ccc(-c2ccc(C3=NNC(=O)CC3)cc2F)cc1C
D: O=C1CCC(c2ccc(-c3cc(F)ccc3F)c(F)c2)=NN1
E: Cc1cc(-c2ccc(C3=NNC(=O)CC3)cc2C)ccc1F
Task: Please list these in order of increasing pIC50. Thank you! Please list the labels in the order you were asked to rank them.
Output: C, E, B, D, A

A: O=C1NN=C(c2ccc(-c3cc(F)ccc3F)c(C(F)(F)F)c2)CO1
B: C[C@H](O)CNc1ccc(C2=NNC(=O)OC2)cc1C(F)(F)F
Task: Which value of pIC50 is smaller, the one for A or the one for B ? Write down the label attached to your selection.
Output: A
(A: 6.82, B: 7.46)

A: Cc1cc(C2=NNC(=O)CC2)ccc1-c1ccccc1F
B: O=C1CCC(c2ccc(-c3ccc(F)cc3F)c(F)c2)=NN1
C: Cc1ncc(-c2ccc(C3=NNC(=O)OC3)cc2F)cn1
Task: Thanks in advance: please rank these 3 entries by pIC50, highest to lowest. Please list the labels in the order you were asked to rank them.
Output: B, C, A
(B: 7.30, C: 7.04, A: 6.82)
